Data credit: patent US11602534B2

# Tested on: FLT3-ITD-BaF3
# experimentalProtocol: Proliferation of FLT3-ITD-BaF3 cells, CCK8 cell viability assay
# Type: cell-based
# experimentalParameters: Mus musculus, 72 hours, stably expressing FLT3/ITD
measureName: GI50 (µM)
Answer in µM, number only, no unit symbol.

CC(=O)Nc1cc(Nc2ccc(NC(=O)Cc3cccc(C(F)(F)F)c3)cc2)ncn1 ... 0.021
COc1ccccc1CC(=O)Nc1ccc(Oc2cc(NC(C)=O)ncn2)cc1 ... 0.331
CC(=O)Nc1cc(Oc2ccc(CC(=O)Nc3ccc(C(F)(F)F)cc3)cc2)ncn1 ... 0.004
CC[C@@H]1CN(C(=O)OC(C)(C)C)CCN1c1cc(Oc2ccc(NC(=O)Nc3ccc(C)c(C(F)(F)F)c3)cc2)ncn1 ... 0.141
Cc1ccc(NC(=O)Nc2ccc(Oc3cc(N[C@H](C)CN)ncn3)cc2)cc1C(F)(F)F ... 0.259

Problem: Would you mind telling me what GI50 value was observed for COCCNc1cc(OC2CCC(NC(=O)Nc3ccc(C)c(C(F)(F)F)c3)CC2)ncn1 (centres unmarked) ?
Solution: 0.109

Problem: Requested field: GI50. Item: `CC(=O)Nc1cc(Oc2ccc(NC(=O)Cc3ccccc3F)cc2)ncn1`
Solution: 0.263

Problem: Requested read-out: GI50. Entry: CC(=O)Nc1cc(Oc2ccc(NC(=O)C(O)c3ccccc3F)cc2)ncn1 (centres unmarked)
Solution: 0.325

* * *

# Test system: TEL-VEGFR2-BaF3
# experimentalProtocol: Proliferation of TEL-VEGFR2-BaF3 cells, CCK8 cell viability assay
# Assay type: cell-based
# experimentalParameters: Mus musculus, 72 hours, stably expressing VEGFR2 kinase
Friendly reminder: GI50 below 400 nM is yes (1), at or above is no (0).

Some solved cases for reference:
Cc1ccc(NC(=O)Nc2ccc(Oc3cc(N4CCNC[C@H]4C)ncn3)cc2)cc1C(F)(F)F ... yes (1)
CC(=O)Nc1cc(Oc2ccc(CC(=O)Nc3ccc(C)cc3C(F)(F)F)cc2)ncn1 ... no (0)
Cc1ccc(NC(=O)Nc2ccc(Oc3cc(N4CCNC[C@@H]4C)ncn3)cc2)cc1C(F)(F)F ... no (0)
CC(=O)Nc1cc(Oc2ccc(CC(=O)N(C)c3ccc(Br)cc3)cc2)ncn1 ... no (0)
CN1CCN(Cc2ccc(NC(=O)Nc3ccc(Oc4cc(NCCN)ncn4)cc3)cc2C(F)(F)F)CC1 ... yes (1)
Cc1ccc(NC(=O)Cc2ccc(Oc3cc(NCCN)ncn3)cc2)cc1C(F)(F)F ... yes (1)

Problem: For the compound `COc1cc(CC(=O)Nc2ccc(Oc3cc(NC(C)=O)ncn3)cc2)cc(OC)c1OC` , is GI50 under 400 nM?
Solution: no (0)

Problem: Does `CC(=O)Nc1cc(Oc2ccc(NC(=O)Cc3cc(F)cc(F)c3)cc2)ncn1` have GI50 strictly under 400 nM?
Solution: no (0)

Problem: Say whether its GI50 is strictly beneath 400 nM. Entry: `CC(=O)Nc1cc(Oc2ccc(NC(=O)Cc3cc(C)ccc3C)cc2)ncn1`
Solution: no (0)

Problem: Could you please tell me whether GI50 recorded for `CC(=O)Nc1cc(Oc2ccc(NC(=O)Cc3ccc(C(C)(C)C)cc3)cc2)ncn1` is less than 400 nM?
Solution: yes (1)

Problem: Does Cc1ccc(NC(=O)NC2CCC(Oc3cc(NCCNC(=O)OC(C)(C)C)ncn3)CC2)cc1C(F)(F)F (centres unmarked) have GI50 strictly under 400 nM?
Solution: no (0)

Problem: Does this compound meet the criterion GI50 < 400 nM? `CC(=O)Nc1cc(Oc2ccc(NC(=O)Cc3ccc(F)cc3F)cc2)ncn1`
Solution: yes (1)

Problem: State whether 400 nM exceeds GI50 recorded for `CC(=O)Nc1cc(Oc2ccc(NC(=O)Cc3ccccc3F)cc2)ncn1` .
Solution: no (0)

* * *

# System: P210-BaF3
# experimentalProtocol: Proliferation of P210-BaF3 cells, CCK8 cell viability assay
# Type: cell-based
# experimentalParameters: Mus musculus, 72 hours, stably expressing BCR-ABL mutant activated kinase
measureName: GI50

Examples from the recorded data:
COCCNc1cc(Oc2ccc(NC(=O)Nc3ccc(CN4CCN(C)CC4)cc3)cc2)ncn1 ... > 10 µM
CC(=O)Nc1cc(Oc2ccc(NC(=O)Cc3ccccc3I)cc2)ncn1 ... > 10 µM
CC(=O)Nc1cc(Oc2ccc(NC(=O)Cc3cccc(Oc4ccccc4)c3)cc2)ncn1 ... > 10 µM
CC(=O)Nc1cc(Oc2ccc(NC(=O)C(O)c3ccccc3F)cc2)ncn1 (centres unmarked) ... > 10 µM
CC(=O)Nc1cc(Oc2ccc(NC(=O)C(C)c3ccc(C)cc3)cc2)ncn1 (centres unmarked) ... > 10 µM

Problem: Which GI50 is listed for `CC(=O)Nc1cc(Nc2ccc(NC(=O)Cc3ccccc3C(F)(F)F)cc2)ncn1` ?
Solution: > 10 µM

Problem: GI50 lookup needed for CNC(=O)c1cc(Oc2ccc(NC(=O)Nc3ccc(Cl)c(C(F)(F)F)c3)cc2)ccn1 [Sorafenib, reference compound] , thanks.
Solution: 3.83 µM

Problem: What value of GI50 has been reported for the following compound? `CC(=O)Nc1cc(Oc2ccc(NC(=O)Cc3ccccc3Br)cc2)ncn1`
Solution: > 10 µM

Problem: Consider the compound shown here: `CC(=O)Nc1cc(Oc2ccc(NC(=O)Cc3ccc(C)c(C)c3)cc2)ncn1` What is its recorded GI50?
Solution: > 10 µM

Problem: Name the recorded GI50 for COCCNc1cc(OC2CCC(NC(=O)Nc3ccc(C)c(C(F)(F)F)c3)CC2)ncn1 (centres unmarked) .
Solution: 4.43 µM

* * *

# System: Tel-cKit/T670I-BaF3
# experimentalProtocol: Proliferation of Tel-cKit/T670I-BaF3 cells, CCK8 cell viability assay
# Assay type: cell-based
# experimentalParameters: Mus musculus, 72 hours, stably expressing cKIT/T670I
Reported GI50 by item:
Your answer should be a plain number; it is taken to be in µM.

Cc1ccc(NC(=O)Cc2ccc(Nc3cc(NCCN)ncn3)cc2)cc1C(F)(F)F ... 0.377
Cc1ccc(NC(=O)Nc2ccc(Oc3cc(N4CCNC[C@H]4C)ncn3)cc2)cc1C(F)(F)F ... 2.16
Cc1ccc(NC(=O)Nc2ccc(Oc3cc(N(C)CCO)ncn3)cc2)cc1C(F)(F)F ... 8.85

Problem: // lookup GI50 for `Cc1ccc(NC(=O)Nc2ccc(Oc3cc(N4CCN(C(=O)OC(C)(C)C)C[C@H]4C)ncn3)cc2)cc1C(F)(F)F`
Solution: 8.08

Problem: // GI50 lookup, key: `CC(C)(C)C(=O)Nc1cc(Oc2ccc(NC(=O)Cc3ccc(C(F)(F)F)cc3)cc2)ncn1`
Solution: 5.68

* * *

# Test system: FLT3-ITD-BaF3
# experimentalProtocol: Proliferation of FLT3-ITD-BaF3 cells, CCK8 cell viability assay
# Assay type: cell-based
# experimentalParameters: Mus musculus, 72 hours, stably expressing FLT3/ITD
Could you please mark MET for values of GI50 below 100 nM and NOT MET for values at or above it?

CC(=O)Nc1cc(Oc2ccc(NC(=O)Cc3ccccc3Cl)cc2)ncn1 ... MET
CC(=O)Nc1cc(Oc2ccc(NC(=O)Cc3cccc4ccccc34)cc2)ncn1 ... MET
CCC(=O)Nc1cc(Oc2ccc(NC(=O)Cc3ccccc3C(F)(F)F)cc2)ncn1 ... NOT MET

Problem: # TODO verify GI50 < 100 nM strictly for this compound: `CC(=O)Nc1cc(Oc2ccc(NC(=O)Cc3ccccc3C(F)(F)F)cc2)ncn1`
Solution: MET

Problem: Below 100 nM on GI50? Entry `CC(C)(C)C(=O)Nc1cc(Oc2ccc(NC(=O)Cc3ccc(C(F)(F)F)cc3)cc2)ncn1`
Solution: NOT MET

* * *

Each entry below carries its recorded GI50.
# Test system: BaF3
# experimentalProtocol: Proliferation of BaF3 cells, CCK8 cell viability assay
# Format: cell-based
# experimentalParameters: Mus musculus, 72 hours

CC(=O)Nc1cc(Oc2ccc(NC(=O)Cc3cc(C)ccc3C)cc2)ncn1 ... > 10 µM
CC(=O)Nc1cc(Oc2ccc(NC(=O)Cc3ccccc3Br)cc2)ncn1 ... > 10 µM
CC(=O)Nc1cc(Nc2ccc(NC(=O)Cc3cccc(C(F)(F)F)c3)cc2)ncn1 ... > 10 µM

Problem: Form: Entry = `CC(=O)Nc1cc(Oc2ccc(CC(=O)Nc3ccc(C(F)(F)F)cc3)cc2)ncn1` | System = BaF3 | GI50 = ____
Solution: > 10 µM

Problem: Param readout= GI50; system= BaF3; entry= `COc1cc(CC(=O)Nc2ccc(Oc3cc(NC(C)=O)ncn3)cc2)cc(OC)c1OC` ; returns value.
Solution: > 10 µM

Problem: # returns recorded GI50 (system: BaF3) for `CCC(=O)NCCNc1cc(Nc2ccc(CC(=O)Nc3ccc(C)c(C(F)(F)F)c3)cc2)ncn1`
Solution: > 10 µM

Problem: API: value(readout=GI50, system=BaF3) for record `CC(=O)Nc1cc(Oc2ccc(NC(=O)Cc3ccc(C(C)(C)C)cc3)cc2)ncn1`
Solution: > 10 µM

Problem: Recorded GI50 for `CC(=O)Nc1cc(Oc2ccc(NC(=O)Cc3ccccc3Cl)cc2)ncn1` with BaF3, please?
Solution: > 10 µM

Problem: For the record `CC(=O)Nc1cc(Oc2ccc(NC(=O)Cc3cccc(Br)c3)cc2)ncn1` , what value of GI50 is listed for BaF3?
Solution: > 10 µM

Problem: What reported GI50 corresponds to `Cc1ccc(NC(=O)Nc2ccc(Oc3cc(N4CCOC[C@H]4C)ncn3)cc2)cc1C(F)(F)F` on BaF3?
Solution: 6.05 µM

Problem: Kindly state the measured GI50 obtained for `Cc1ccc(NC(=O)N[C@H]2CC[C@H](Oc3cc(NCCO)ncn3)CC2)cc1C(F)(F)F` with BaF3.
Solution: 5.5 µM

Problem: Give BaF3 GI50 for `COc1ccccc1CC(=O)Nc1ccc(Oc2cc(NC(C)=O)ncn2)cc1`
Solution: > 10 µM

Problem: What measured GI50 is associated with Cc1ccc(NC(=O)NC2CCC(Oc3cc(NCCN)ncn3)CC2)cc1C(F)(F)F (stereo not drawn) on BaF3?
Solution: > 10 µM

Problem: Kindly state the measured GI50 obtained for `CC(=O)Nc1cc(Oc2ccc(NC(=O)Cc3cccc4ccccc34)cc2)ncn1` with BaF3.
Solution: > 10 µM

Problem: Report GI50 for `CCCC(=O)Nc1cc(Oc2ccc(NC(=O)Cc3ccccc3C(F)(F)F)cc2)ncn1` tested on BaF3.
Solution: > 10 µM

Problem: // fetch BaF3 GI50 for `CC(=O)Nc1cc(Oc2ccc(NC(=O)Cc3ccccc3I)cc2)ncn1`
Solution: > 10 µM

Problem: State its GI50 on BaF3: `CC[C@@H]1CN(C(=O)OC(C)(C)C)CCN1c1cc(Oc2ccc(NC(=O)Nc3ccc(C)c(C(F)(F)F)c3)cc2)ncn1`
Solution: > 10 µM

Problem: // lookup GI50 | system=BaF3 | key= `Cc1ccc(NC(=O)Nc2ccc(Oc3cc(N4CCN(C(=O)OC(C)(C)C)C[C@H]4CO)ncn3)cc2)cc1C(F)(F)F`
Solution: > 10 µM
